For each of the sequences below, state its Binding of serum London to looped/cyclic peptides of protein X5 of SARS-CoV Urbani.
Tested on: antibodies in sera from SARS patients (sera 1a, 1b, 2, 6, 37, 62, London, SARS-yellow, SARS-green)
Type: binding, human

## Input So what does the record say about Binding of serum London to looped/cyclic peptides of protein X5 of SARS-CoV Urbani for `ILVRYNTRGNTYSTA` ?
## Output 0.2

## Input Do the same for `LCALGKVLPFHRWHT` please
## Output 0.2

## Input Do the same for `NTYSTAWLCALGKVL` please
## Output 2.3

## Input Do the same for `HRWHTMVQTCTPNVT` please
## Output 0.1

## Input Do the same for `GNTYSTAWLCALGKV` please
## Output 0.2

## Input Do the same for `GGALIARCWYLHEGH` please
## Output 0.3
